target: recombinant human UAE (Homo sapiens (Human)); assay: Ubiquitin Activating Enzyme (UAE) HTRF Assay; conditions: read-out: % inhibition @0.111 μM
Sequence (P22314 whole entry): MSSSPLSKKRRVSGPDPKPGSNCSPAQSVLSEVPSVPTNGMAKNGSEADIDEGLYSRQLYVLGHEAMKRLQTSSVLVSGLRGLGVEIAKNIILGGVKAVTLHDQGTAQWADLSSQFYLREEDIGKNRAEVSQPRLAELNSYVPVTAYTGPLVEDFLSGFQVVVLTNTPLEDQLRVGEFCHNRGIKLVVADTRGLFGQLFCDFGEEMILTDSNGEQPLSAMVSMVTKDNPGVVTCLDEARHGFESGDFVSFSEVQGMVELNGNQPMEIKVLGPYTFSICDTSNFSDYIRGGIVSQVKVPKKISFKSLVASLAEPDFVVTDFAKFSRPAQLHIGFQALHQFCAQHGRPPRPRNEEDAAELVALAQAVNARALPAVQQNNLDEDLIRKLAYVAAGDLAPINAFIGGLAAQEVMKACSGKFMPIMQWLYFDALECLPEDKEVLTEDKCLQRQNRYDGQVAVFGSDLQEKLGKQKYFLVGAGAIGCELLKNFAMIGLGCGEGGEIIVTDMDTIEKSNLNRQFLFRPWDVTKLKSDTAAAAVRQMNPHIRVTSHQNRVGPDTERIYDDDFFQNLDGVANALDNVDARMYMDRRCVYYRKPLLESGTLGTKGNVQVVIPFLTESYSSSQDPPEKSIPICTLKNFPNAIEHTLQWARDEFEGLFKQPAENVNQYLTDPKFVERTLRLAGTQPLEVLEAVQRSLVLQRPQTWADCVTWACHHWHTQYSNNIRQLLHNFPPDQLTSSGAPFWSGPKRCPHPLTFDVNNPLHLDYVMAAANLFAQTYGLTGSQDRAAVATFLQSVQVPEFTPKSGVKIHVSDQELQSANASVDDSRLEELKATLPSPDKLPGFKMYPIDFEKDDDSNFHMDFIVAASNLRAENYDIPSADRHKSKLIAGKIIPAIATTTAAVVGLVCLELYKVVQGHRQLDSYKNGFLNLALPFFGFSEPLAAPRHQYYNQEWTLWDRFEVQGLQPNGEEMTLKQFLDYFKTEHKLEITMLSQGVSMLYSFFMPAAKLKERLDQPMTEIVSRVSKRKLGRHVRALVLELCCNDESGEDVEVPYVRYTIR
For each of the compounds below, state its inhibition at 0.111 µM.
One number for each entry, in %.

The examples below pair each entry with its known result.
[
  {
    "compound": "CC(C)(c1cccc(-c2cc3nccc(N[C@@H]4C[C@H](COS(N)(=O)=O)[C@@H](O)[C@H]4O)n3n2)c1)C(F)(F)F (relative stereo) [Compound I-058]",
    "inhibition at 0.111 µM / %": 100
  },
  {
    "compound": "NS(=O)(=O)OC[C@H]1C[C@@H](Nc2ccnc3cc(-c4cccc(OC(F)(F)F)c4)nn23)[C@H](O)[C@@H]1O (relative stereo) [Compound I-040]",
    "inhibition at 0.111 µM / %": 100
  }
]

Fetch value of inhibition at 0.111 µM on recombinant human UAE (Homo sapiens (Human)) for NS(=O)(=O)OC[C@H]1C[C@@H](Nc2ccnc3cc(-c4cccc5cc(C(=O)O)ccc45)nn23)[C@H](O)[C@@H]1O (relative stereo) [Compound I-099] .
100

* * *

biological target: recombinant human UAE (Homo sapiens (Human)); assay: Ubiquitin Activating Enzyme (UAE) HTRF Assay; settings: read-out: % inhibition @0.111 μM
For each of the compounds below, state its inhibition at 0.111 µM.

The examples below pair each entry with its known result.
[
  {
    "compound": "NS(=O)(=O)OC[C@H]1C[C@@H](Nc2ccnc3cc(-c4c(OC(F)F)ccc5ccccc45)nn23)[C@H](O)[C@@H]1O",
    "inhibition at 0.111 µM": "100%"
  },
  {
    "compound": "COc1ccc2ccccc2c1-c1cc2nccc(N[C@@H]3C[C@H](COS(N)(=O)=O)[C@@H](O)[C@H]3O)n2n1",
    "inhibition at 0.111 µM": "100%"
  },
  {
    "compound": "NS(=O)(=O)OC[C@H]1C[C@@H](Nc2ccnc3cc(-c4cc5ccccc5o4)nn23)[C@H](O)[C@@H]1O (relative stereo)",
    "inhibition at 0.111 µM": "99%"
  },
  {
    "compound": "NS(=O)(=O)OC[C@H]1C[C@@H](Nc2ccnc3cc(-c4cc(C(F)(F)F)ccc4F)nn23)[C@H](O)[C@@H]1O (relative stereo)",
    "inhibition at 0.111 µM": "100%"
  },
  {
    "compound": "NS(=O)(=O)OC[C@H]1C[C@@H](Nc2ccnc3cc(-c4cccc(C(F)(F)F)n4)nn23)[C@H](O)[C@@H]1O (relative stereo)",
    "inhibition at 0.111 µM": "96%"
  },
  {
    "compound": "COc1ccc(SC(F)(F)F)cc1-c1cc2nccc(N[C@@H]3C[C@H](COS(N)(=O)=O)[C@@H](O)[C@H]3O)n2n1",
    "inhibition at 0.111 µM": "100%"
  },
  {
    "compound": "NS(=O)(=O)OC[C@H]1C[C@@H](Nc2ccnc3cc(-c4cccc5cnccc45)nn23)[C@H](O)[C@@H]1O (relative stereo)",
    "inhibition at 0.111 µM": "100%"
  },
  {
    "compound": "NS(=O)(=O)OC[C@H]1C[C@@H](Nc2ccnc3cc(-c4cccc5cc(C(F)F)ccc45)nn23)[C@H](O)[C@@H]1O",
    "inhibition at 0.111 µM": "100%"
  },
  {
    "compound": "COc1ccccc1-c1cc2nccc(N[C@@H]3C[C@H](COS(N)(=O)=O)[C@@H](O)[C@H]3O)n2n1 (relative stereo)",
    "inhibition at 0.111 µM": "100%"
  },
  {
    "compound": "CC1(C)COc2ccc(-c3cc4nccc(N[C@@H]5C[C@H](COS(N)(=O)=O)[C@@H](O)[C@H]5O)n4n3)cc21 (relative stereo)",
    "inhibition at 0.111 µM": "100%"
  }
]

For every item below, please supply its inhibition at 0.111 µM.
1. C#Cc1cccc(-c2cc3nccc(N[C@@H]4C[C@H](COS(N)(=O)=O)[C@@H](O)[C@H]4O)n3n2)c1 (relative stereo)
2. NS(=O)(=O)OC[C@H]1C[C@@H](Nc2ccnc3cc(-c4cccc(N5CCCC5)c4)nn23)[C@H](O)[C@@H]1O (relative stereo)

100%
100%

Reference for the values: patent US10202389B2
